- Subject Of Test: DYRK1/DYRK1A (Homo sapiens)
- Test Name: DYRK1/DYRK1A IC50 assay (Reaction Biology Corp.)
- Particulars: DYRK1/DYRK1A assay from Reaction Biology Corp.; NI: No inhibition
Values of IC50 strictly less than 70 nM map to condition met, and values of at least 70 nM map to condition not met.

Below, 3 compounds whose answers are already recorded.
CC(C)n1c(=O)[nH]c2ccc(-c3cnc(NCc4ccccc4)nc3)cc21 [Compound 57b]; condition not met
O=c1[nH]c2ccc(-c3cnc(NCc4ccccc4)nc3)cc2n1C1CC1 [Compound 57c]; condition not met
O=c1[nH]c2ccc(-c3cnc(NCCCc4ccccc4)nc3)cc2[nH]1 [Compound 29l]; condition met

Please find the next compound below.
Determine if COc1cccc(Nc2ncc(-c3ccc4[nH]c(=O)[nH]c4c3)cn2)c1 [Compound 48h] shows IC50 strictly lower than 70 nM. condition met

###

- Subject Of Test: DYRK1/DYRK1A (Homo sapiens)
- Test Name: DYRK1/DYRK1A IC50 assay (Reaction Biology Corp.)
- Particulars: DYRK1/DYRK1A assay from Reaction Biology Corp.; NI: No inhibition
Readout Type: log10 IC50 (log10 of the value in nM)
Reminder: these figures are log10 of reported IC50, in nM before transformation.

O=c1[nH]c2ccc(-c3cnc(NCc4cccs4)nc3)cc2[nH]1 [Compound 51b]; 1.51

State recorded log10 IC50 for all listed compounds.
1. O=c1[nH]c2ccc(-c3cnc(NCc4c[nH]cn4)nc3)cc2[nH]1 [Compound 51d]
2. O=c1[nH]c2ccc(-c3cnc(Nc4cccc(F)c4)nc3)cc2[nH]1 [Compound 48b]

1. 2.51
2. 1.68

###

- Subject Of Test: DYRK1/DYRK1A (Homo sapiens)
- Test Name: DYRK1/DYRK1A IC50 assay (Reaction Biology Corp.)
- Particulars: DYRK1/DYRK1A assay from Reaction Biology Corp.; NI: No inhibition
Give measured pIC50 for each item. Keep answers brief.
Answers are plain numbers, as −log10 of the molar value.

Here is how some compounds turned out for pIC50.
O=c1[nH]c2ccc(-c3cnc(NCc4ncc[nH]4)nc3)cc2[nH]1 [Compound 51c]; 6.02
C[C@@H](Nc1ncc(-c2ccc3[nH]c(=O)[nH]c3c2)cn1)c1ccccc1 [Compound 60a]; 6.30
O=c1[nH]c2ccc(-c3cnc(Nc4ccccc4F)nc3)cc2[nH]1 [Compound 48a]; 7.11
O=c1[nH]c2ccc(-c3cnc(NCc4cc[nH]n4)nc3)cc2[nH]1 [Compound 51e]; 6.47
O=c1[nH]c2ccc(-c3cnc(Nc4ccc(Cl)cc4)nc3)cc2[nH]1 [Compound 48f]; 7.04
C[C@H](Nc1ncc(-c2ccc3[nH]c(=O)[nH]c3c2)cn1)c1ccccc1 [Compound 60b]; 6.75
COc1ccc(Nc2ncc(-c3ccc4[nH]c(=O)[nH]c4c3)cn2)cc1 [Compound 48i]; 7.52
COc1ccccc1Nc1ncc(-c2ccc3[nH]c(=O)[nH]c3c2)cn1 [Compound 48g]; 6.30
O=c1[nH]c2ccc(-c3cnc(NCc4ncco4)nc3)cc2[nH]1 [Compound 51f]; 6.37
CCn1c(=O)[nH]c2ccc(-c3cnc(NCc4ccccc4)nc3)cc21 [Compound 57a]; 6.61

Please look at the items below and tell me pIC50 for each one, in order.
1. O=c1[nH]c2ccc(-c3cnc(Nc4cccc(Cl)c4)nc3)cc2[nH]1 [Compound 48e]
2. COCCOc1cccc(CNc2ncc(-c3ccc4[nH]c(=O)[nH]c4c3)cn2)c1 [Compound 62]
3. O=c1[nH]c2ccc(-c3cnc(Nc4ccc(F)cc4)nc3)cc2[nH]1 [Compound 48c]

1: 7.26; 2: 7.32; 3: 7.24

For every item in the list below, what is its measured pIC50?
1. O=c1[nH]c2ccc(-c3cnc(NCc4ccco4)nc3)cc2[nH]1 [Compound 51a]
2. O=c1[nH]c2ccc(-c3cncc(NCc4ccccc4)n3)cc2[nH]1 [Compound 18m]
3. O=c1[nH]c2ccc(-c3cnc(Nc4ccccc4Cl)nc3)cc2[nH]1 [Compound 48d]

7.14
8.95
7.23
